tested system: Human 5-HT6 Receptor (Homo sapiens)
Construct: host or cells: HEK293
Sequence (P50406 whole entry): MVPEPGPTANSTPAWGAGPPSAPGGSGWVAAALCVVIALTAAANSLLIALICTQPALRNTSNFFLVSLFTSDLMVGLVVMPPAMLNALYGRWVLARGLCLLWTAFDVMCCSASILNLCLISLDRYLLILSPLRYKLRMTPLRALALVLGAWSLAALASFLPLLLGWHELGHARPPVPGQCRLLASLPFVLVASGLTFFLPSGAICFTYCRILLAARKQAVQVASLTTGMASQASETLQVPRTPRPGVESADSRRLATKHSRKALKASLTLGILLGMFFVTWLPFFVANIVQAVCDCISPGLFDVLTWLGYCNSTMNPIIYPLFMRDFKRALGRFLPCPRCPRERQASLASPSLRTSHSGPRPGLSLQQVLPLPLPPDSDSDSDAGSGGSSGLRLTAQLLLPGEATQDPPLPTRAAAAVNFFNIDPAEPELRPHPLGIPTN
measurement notes: Nova Screen binding assay for human 5-HT6 receptor ([3H]LSD radioligand binding)
applied conditions: 100 nM; human recombinant receptor expressed in HEK293 cells; [3H]LSD 1.5 nM; read-out: % Inhibition at 100 nM, radioligand binding data at 5ht6R (h)
property name: inhibition at 0.1 µM (%)

{"molecule": "CN1CCC(Nc2cccc(S(=O)(=O)n3ccc4ccccc43)c2)CC1 [Example 1]", "inhibition at 0.1 µM (%)": 96.8}
{"molecule": "CN1CCC(Nc2cccc(S(=O)(=O)n3ccc4cc(Br)ccc43)c2)CC1 [Example 4]", "inhibition at 0.1 µM (%)": 92.2}
{"molecule": "COc1ccc(S(=O)(=O)n2ccc3ccccc32)cc1NC1CCN(C)CC1 [Example 17]", "inhibition at 0.1 µM (%)": 101}
{"molecule": "CN1CCC(Nc2cccc(S(=O)(=O)n3ccc4cc(F)ccc43)c2)CC1 [Example 6]", "inhibition at 0.1 µM (%)": 93.2}
{"molecule": "COc1ccc2c(ccn2S(=O)(=O)c2cccc(NC3CCN(C)CC3)c2)c1 [Example 2]", "inhibition at 0.1 µM (%)": 82.2}
{"molecule": "COc1ccc2c(ccn2S(=O)(=O)c2ccc(C)c(NC3CCN(C)CC3)c2)c1 [Example 10]", "inhibition at 0.1 µM (%)": 85.3}
